- test.description: PK profile in male CD1 mice
- Type: in vivo
- measurement.parameters: mouse, po, 30 mg/kg, single dose, mean plasma
observable: AUC(0-inf) (ng·h/mL)
Report as a plain number; the unit ng·h/mL is understood.

So, C=CC(=O)N1CCN(c2cc(OCC34CCCN3CCC4)nc3cc(-c4cccc5cccc(Cl)c45)cnc23)C[C@@H]1CC#N ? Its AUC(0-inf) was 1500

Origin of values: patent US20260216179A1
